target: Gal(a1-4)Gal(b1-4)Glc; experiment: glycan array binding signal (z-score within array); higher = stronger binding; settings: glycan notation: IUPAC condensed, linker removed
The full list was thinned out, with the strongest signals kept by preference.
endpoint: glycan array binding signal (z-score)

# glycan array binding signal (z-score) lookup, item Gal 1 (Mus musculus), P16045 (protein) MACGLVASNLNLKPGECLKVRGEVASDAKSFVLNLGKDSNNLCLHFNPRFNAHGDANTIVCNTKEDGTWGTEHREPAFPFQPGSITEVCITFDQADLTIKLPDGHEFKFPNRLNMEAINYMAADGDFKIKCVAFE
-0.376

Record request: glycan array binding signal (z-score) value, item pilr alpha (protein) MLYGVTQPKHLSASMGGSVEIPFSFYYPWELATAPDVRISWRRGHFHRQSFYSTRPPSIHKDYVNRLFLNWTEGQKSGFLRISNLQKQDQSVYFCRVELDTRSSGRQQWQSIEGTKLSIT
1.77

I am curious: what glycan array binding signal (z-score) value has been reported for DrGal9 (Danio rerio) (protein) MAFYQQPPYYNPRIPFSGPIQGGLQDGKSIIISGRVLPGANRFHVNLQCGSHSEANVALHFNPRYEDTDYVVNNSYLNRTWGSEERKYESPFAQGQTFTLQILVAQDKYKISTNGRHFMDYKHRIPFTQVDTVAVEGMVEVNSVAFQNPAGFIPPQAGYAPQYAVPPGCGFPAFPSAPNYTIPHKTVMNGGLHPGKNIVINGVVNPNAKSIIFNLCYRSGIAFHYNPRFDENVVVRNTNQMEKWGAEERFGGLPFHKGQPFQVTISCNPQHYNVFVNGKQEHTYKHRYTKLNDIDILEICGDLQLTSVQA ?
-0.356

Fill in the blank: the reported glycan array binding signal (z-score) of Clec49 (Caenorhabditis elegans) (protein) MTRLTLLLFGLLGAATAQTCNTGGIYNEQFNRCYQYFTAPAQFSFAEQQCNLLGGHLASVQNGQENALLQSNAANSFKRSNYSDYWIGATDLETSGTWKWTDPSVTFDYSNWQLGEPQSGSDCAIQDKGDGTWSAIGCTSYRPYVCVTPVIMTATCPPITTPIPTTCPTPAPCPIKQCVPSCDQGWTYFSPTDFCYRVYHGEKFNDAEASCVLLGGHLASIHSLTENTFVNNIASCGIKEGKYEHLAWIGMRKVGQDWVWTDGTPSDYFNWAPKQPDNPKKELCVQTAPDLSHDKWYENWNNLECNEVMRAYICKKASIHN is ____.
-0.394

What does the record list as glycan array binding signal (z-score) for HFR-3 (Triticum aestivum) (protein) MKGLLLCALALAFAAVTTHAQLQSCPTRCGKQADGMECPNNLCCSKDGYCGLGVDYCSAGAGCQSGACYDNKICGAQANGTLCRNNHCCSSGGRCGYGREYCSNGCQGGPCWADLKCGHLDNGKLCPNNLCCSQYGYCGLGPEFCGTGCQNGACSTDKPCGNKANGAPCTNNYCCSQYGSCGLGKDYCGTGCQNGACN ?
2.12

Which value of glycan array binding signal (z-score) has been reported for EULS2 M2 (Oryza sativa) (protein) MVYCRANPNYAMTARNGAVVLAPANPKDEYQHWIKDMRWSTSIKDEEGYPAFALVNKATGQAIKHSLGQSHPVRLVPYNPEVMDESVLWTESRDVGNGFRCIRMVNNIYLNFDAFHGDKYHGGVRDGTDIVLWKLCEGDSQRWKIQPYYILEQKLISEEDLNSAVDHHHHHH in the records?
-0.552

Query: glycan array binding signal (z-score); subject: AT1G15820(2) (Arabidopsis thaliana), Q9LMQ2 (protein) MAMAVSGAVLSGLGSSFLTGGKRGATALASGVGTGAQRVGRKTLIVAAAAAQPKKSWIPAVKGGGNFLDPEWLDGSLPGDFGFDPLGLGKDPAFLKWYREAELIHGRWAMAAVLGIFVGQAWSGVAWFEAGAQPDAIAPFSFGSLLGTQLLLMGWVESKRWVDFFNPDSQSVEWATPWSKTAENFANYTGDQGYPGGRFFDPLGLAGKNRDGVYEPDFEKLERLKLAEIKHSRLAMVAMLIFYFEAGQGKTPLGALGL
2.16

What value of measured glycan array binding signal (z-score) is listed for CC1G-11630 (Coprinopsis cinerea), A8P462 (protein) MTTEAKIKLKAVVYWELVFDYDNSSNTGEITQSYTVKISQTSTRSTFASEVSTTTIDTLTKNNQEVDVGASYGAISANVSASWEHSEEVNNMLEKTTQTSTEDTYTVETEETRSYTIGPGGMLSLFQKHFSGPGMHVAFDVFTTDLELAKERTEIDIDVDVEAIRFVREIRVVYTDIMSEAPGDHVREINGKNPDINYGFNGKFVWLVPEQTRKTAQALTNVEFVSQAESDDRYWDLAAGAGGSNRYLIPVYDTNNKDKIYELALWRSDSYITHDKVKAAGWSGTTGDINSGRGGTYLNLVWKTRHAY ?
0.088

What does the data say about its glycan array binding signal (z-score)? Entry: SGC, Q9M345 (protein) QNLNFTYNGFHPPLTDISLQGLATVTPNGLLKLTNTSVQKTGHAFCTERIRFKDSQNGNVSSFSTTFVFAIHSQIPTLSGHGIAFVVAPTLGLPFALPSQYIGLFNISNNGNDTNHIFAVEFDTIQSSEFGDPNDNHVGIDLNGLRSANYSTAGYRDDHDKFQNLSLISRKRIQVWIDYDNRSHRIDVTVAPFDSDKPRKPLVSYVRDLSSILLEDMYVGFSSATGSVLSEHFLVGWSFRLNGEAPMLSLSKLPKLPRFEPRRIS
-0.292

Given the entry Threefoil (Haloarcula marismortui) (protein) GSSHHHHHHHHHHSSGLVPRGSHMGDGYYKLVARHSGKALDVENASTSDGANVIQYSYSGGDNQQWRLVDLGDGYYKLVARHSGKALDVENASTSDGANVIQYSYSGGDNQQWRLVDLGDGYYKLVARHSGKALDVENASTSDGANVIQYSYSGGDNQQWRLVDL , report its measured glycan array binding signal (z-score).
0.139

# lookup: glycan array binding signal (z-score) of DCL-1 (Homo sapiens), Q8IX05 (protein) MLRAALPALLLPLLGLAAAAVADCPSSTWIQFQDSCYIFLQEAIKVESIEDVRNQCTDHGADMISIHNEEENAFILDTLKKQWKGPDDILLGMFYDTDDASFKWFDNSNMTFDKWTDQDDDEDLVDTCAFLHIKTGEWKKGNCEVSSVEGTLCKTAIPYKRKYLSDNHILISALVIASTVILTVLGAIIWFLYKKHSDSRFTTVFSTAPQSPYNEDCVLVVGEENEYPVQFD
-0.289

Data provenance is the supplement of paper PMC8728848.
